Tested on: Mycobacterium tuberculosis
test: Cornell - Phenotypic assay to identify agents that inhibit growth of Mycobacterium tuberculosis
Format: functional
Parameters: scale not given: direction of the effect not stated beside the values
condition-notes: 10 mM as filed; unlikely as a test dose
Screen size: about 53,000 compounds; about 900 (1.7%) showed an effect of 50% or more. For the sample, strong results were picked, then their nearest neighbours and some compounds at random.
readout-kind: Percent Effect (%)
# value in %; strip the unit string

Query block: Lab note: Mycobacterium tuberculosis assay, enter Percent Effect for COCCCN(C)c1nc(-c2ccncc2)nc(C)c1C here
Result block: 79.79

Query block: Give measured Percent Effect for COCCN1CCC2(CCN(Cc3ccc(OC)cc3)CC2)C1=O.O=C(O)C(F)(F)F (Mycobacterium tuberculosis).
Result block: -13.5

Query block: Recall the reported Percent Effect of Fc1ccccc1NCc1nc2n(n1)CCCCC2 when tested on Mycobacterium tuberculosis.
Result block: 6.356

Query block: Please report the measured Percent Effect for COCCN1C[C@@H](c2ccccc2)[C@@]2(CCN(CC(=O)N(C)C)C2=O)C1.O=C(O)C(F)(F)F tested on Mycobacterium tuberculosis.
Result block: 13.65

Query block: Write down measured Percent Effect (Mycobacterium tuberculosis) for this molecule. Cc1cc(C)nc(N2CCC(c3cc(CCO)[nH]n3)C2)n1 (stereo unspecified)
Result block: 21.68

Query block: Under Mycobacterium tuberculosis: report Percent Effect of CC(C)c1cc(CN2CCC(CC(=O)O)CC2)no1 .
Result block: -2.549

Query block: Look up Mycobacterium tuberculosis data: Percent Effect of CCN1N=C(C(=O)N2CCCC(c3nc(C)c(C)s3)C2)CCC1=O (stereo unspecified) , then report it.
Result block: -28.99

Query block: GET Percent Effect where system = Mycobacterium tuberculosis and item = Cc1ncsc1C(=O)N1CCC(c2ncncc2-c2ccnc(N)c2)C1 (stereo unspecified)
Result block: -0.8467

Query block: Under Mycobacterium tuberculosis: report Percent Effect of CN1C[C@@H](C(=O)NC2CC2)[C@@]2(COc3ccc(F)cc3C2=O)C1 .
Result block: -27.17

Query block: Specify the recorded Percent Effect for Br.COc1ccc(OCCc2cc(C3CCN(CC(C)C)C3)n[nH]2)cc1 (stereo unspecified) , system: Mycobacterium tuberculosis.
Result block: 44.88

Query block: Provide Mycobacterium tuberculosis Percent Effect reading for Clc1ccc(OCCc2cc(C3CCN(c4ncccn4)C3)n[nH]2)cc1 (stereo unspecified) .
Result block: 81.19

---

System: Mycobacterium tuberculosis
test: Cornell - Phenotypic assay to identify agents that inhibit growth of Mycobacterium tuberculosis
Format: functional
Parameters: scale not given: direction of the effect not stated beside the values
condition-notes: 10 mM as filed; unlikely as a test dose
The whole screen tested about 53,000 compounds, of which about 900 (1.7%) showed an effect of 50% or more. The sample holds strong results, similar compounds and a random draw of the others, so the mix is not that of the screen.
Param label: returns condition met when Percent Effect < 30%, returns condition not met otherwise, including exact equality.

Query block: Does this molecule meet the criterion Percent Effect < 30%? Cc1ccsc1CN(c1nc(CCN)nc2ccccc12)C1CC1
Result block: condition not met

Query block: Consider the molecule NCCc1nc(N(Cc2nccs2)C2CC2)c2ccccc2n1 . Is its Percent Effect strictly less than 30%?
Result block: condition met

Query block: Consider CC(CO)NC(=O)c1ccc(NCc2ccc(F)c(F)c2)cc1 (configuration not stated) . Does its Percent Effect lie strictly below 30%?
Result block: condition met

Query block: Percent Effect under 30%? Item: Cc1cnn(CC2CCCN2CC(=O)Nc2cc(C(C)(C)C)no2)c1 (configuration not stated)
Result block: condition met

Query block: Bench note: check whether O=C(COCC1CC1)Nc1ncccc1O shows Percent Effect below 30%
Result block: condition met

Query block: is_below(Percent Effect, 30%) for NCCc1nc(N(Cc2cncs2)C2CC2)c2ccccc2n1 ?
Result block: condition met

Query block: Just wondering, is Percent Effect of Cc1cc(C(=O)N2CC[C@@H]3CN(C)S(=O)(=O)[C@@H]3CC2)no1 below 30%?
Result block: condition met

Query block: In the record for COCCCNC(=O)C(C)n1nc(-c2ccco2)cc(N)c1=O (configuration not stated) , is Percent Effect less than 30%?
Result block: condition not met

Query block: I'd appreciate it if you could check whether COc1ccccc1-c1cc(NC(=O)COCC2CC2)[nH]n1 has Percent Effect smaller than 30%.
Result block: condition not met

Query block: Lab log: compare recorded Percent Effect with 30%; is it strictly lower for O=C(Cn1ccc2c(Cl)cccc21)Nc1nc[nH]n1 ?
Result block: condition met

Query block: Problem: For the molecule CCc1ncc(S(C)(=O)=O)c(C2CCCNC2)n1 (configuration not stated) , is Percent Effect under 30%?
Result block: condition met

Query block: Hello, is Percent Effect of the following molecule strictly smaller than 30%? OCCn1nccc1C1CCN(CCOc2ccccc2)CC1
Result block: condition met

---

Tested on: Mycobacterium tuberculosis
test: Cornell - Phenotypic assay to identify agents that inhibit growth of Mycobacterium tuberculosis
Type: functional
Set-up: scale not given: direction of the effect not stated beside the values
condition-notes: 10 mM as filed; unlikely as a test dose
Among all 53,000 compounds or so, about 900 (1.7%) showed an effect of 50% or more. The sample holds strong results, similar compounds and a random draw of the others, so the mix is not that of the screen.
Would you mind telling me the reported Percent Effect of each entry?
Number in %, nothing else.

Query block: Name the recorded Percent Effect of the item CCn1ccnc1CN1CCCN(C(=O)COC2CCCC2)CC1 in your answer.
Result block: -24.49

Query block: For the compound Cc1ccccc1N1CCN(c2nc(N(C)C)nc3c2CCNC3)CC1 , give its reported Percent Effect.
Result block: -18.26

Query block: Consider the compound CC(CNC(=O)Nc1ccc(C#N)cc1)N1CCc2ccccc21 (stereo not drawn) and give its recorded Percent Effect.
Result block: 62.86

Query block: Fill in reported Percent Effect for this entry: CC(C)NC(=O)C1(Cc2ccccc2-c2cncnc2)CCCNC1 (stereo not drawn)
Result block: -1.5

Query block: Entry Cc1cc(C)cc(OCCN2CCn3c(C)nnc3C2)c1 needs its Percent Effect filled in; supply it.
Result block: 12.04

Query block: In one line, give reported Percent Effect of the entry O=C(CNc1cc(-n2cnnn2)ccc1F)NCc1ccccc1 .
Result block: 76.98

Query block: Could you please provide reported Percent Effect for O=C(CNc1cc(-n2cnnn2)ccc1F)Nc1ccccc1Cl ? Thanks!
Result block: 96.42

Query block: Note down Percent Effect recorded for CC(CNC(=O)c1ccc(C#N)cc1)N1CCc2ccccc21 (stereo not drawn)
Result block: 20.43

Query block: Look up and state reported Percent Effect for CCn1c(C)cc(C(=O)N2CCC(Nc3cccnn3)CC2)c1C
Result block: 7.118

Query block: Answer with the recorded Percent Effect for the compound listed here: Cc1cc(N2CCC(C(=O)O)(n3ccc(C(C)(C)C)n3)CC2)nc(N)n1
Result block: 5.557

Query block: Identify the reported Percent Effect for the following entry. CC(C)NC(=O)C1(Cc2ccccc2-c2ccccc2)CCCNC1 (stereo not drawn)
Result block: -4.67

Query block: Give reported Percent Effect value for Cc1ccc(-n2cnnn2)cc1NCC(=O)Nc1cc(F)ccc1F
Result block: 11.17

Query block: Complete the entry with Percent Effect for CN1CC(Nc2nc3c(cnn3C(C)(C)C)c(=O)[nH]2)CCC1=O (stereo not drawn)
Result block: 12.63

Query block: Report Percent Effect for CC(C)(C)n1ncc2c(=O)[nH]c(N3CCN(CCO)CC3)nc21
Result block: 21.4

Query block: Retrieve Percent Effect measured for CN1CCN(Cn2nc(-c3cccs3)ccc2=O)CC1 and print it.
Result block: 17.93

Query block: Please list Percent Effect recorded for the compound CC(C)(C)n1ncc2c(=O)[nH]c(N3CC(O)C3)nc21
Result block: -9.536

Query block: Tell us which Percent Effect value is on record for CC(C(N)=O)n1nc(-c2cccs2)cc(N)c1=O (stereo not drawn)
Result block: -30.4

Query block: For the compound CCc1c(C)nc(SCc2ccccn2)[nH]c1=O , report Percent Effect.
Result block: 11.8

Query block: Please look at this compound and report its Percent Effect: O=C(NCCCN1CCCC1=O)c1nc(-c2ccc3[nH]ccc3c2)no1
Result block: 3.66

Query block: Check the records and state Percent Effect for CCCN1CCC(c2nc3ccc(-c4ccncc4)cn3n2)CC1.O=C(O)C(F)(F)F.O=C(O)C(F)(F)F
Result block: -17.17

Query block: Quote Percent Effect reported for Cc1csc(Nc2cc(C3CN(c4ccncn4)C3)nc(C)n2)n1 please.
Result block: 23.54

Query block: Fill in Percent Effect for record O=C(COC[C@]12COC[C@H]1CN(C1CCC1)C2)N1CCCC1.O=C(O)C(F)(F)F
Result block: -23.94

Query block: Return Percent Effect (reported value) for this compound: CC(C)(C)n1ncc2c(=O)[nH]c(NC3CC=CC3)nc21
Result block: 82.93

---

System: Mycobacterium tuberculosis
test: Cornell - Phenotypic assay to identify agents that inhibit growth of Mycobacterium tuberculosis
Assay type: functional
Set-up: scale not given: direction of the effect not stated beside the values
condition-notes: 10 mM as filed; unlikely as a test dose
About 900 (1.7%) of roughly 53,000 compounds showed an effect of 50% or more. The sample as a whole holds a higher share of strong results than the screen did.
readout-kind: Percent Effect (%)
Value expressed in %; do not type the unit.

Query block: Name the value of Percent Effect reported for CCOc1ccccc1C(=O)NS(=O)(=O)c1ccc2c(c1)OCCCO2 when tested on Mycobacterium tuberculosis.
Result block: 27.03

Query block: Write down the reported Percent Effect (system: Mycobacterium tuberculosis) of Cc1ccc(OCC(=O)NS(=O)(=O)Cc2ccccc2)cc1
Result block: 7.336

Query block: Using Mycobacterium tuberculosis as the test system, report measured Percent Effect of CCOc1cccc2c1OCC(C(=O)NS(=O)(=O)c1ccc(C)s1)=C2 .
Result block: 107.6

Query block: State, for Mycobacterium tuberculosis, measured Percent Effect of the compound listed here: Cc1cc(OCC(=O)NS(=O)(=O)c2c(C)noc2C)ccc1Cl
Result block: 39.96

Query block: Provide the reported Percent Effect (system: Mycobacterium tuberculosis) for CCOc1cccc2c1OCC(C(=O)NS(=O)(=O)c1cccs1)=C2
Result block: 19.94

Query block: Report the value of Percent Effect obtained on Mycobacterium tuberculosis for O=C(Nc1cccc(F)c1)NC1CCN(Cc2ccncc2)CC1 .
Result block: 26.05

Query block: Give measured Percent Effect for CCOc1cccc2c1OCC(C(=O)NS(=O)(=O)c1cncc(Br)c1)=C2 (Mycobacterium tuberculosis).
Result block: 44.21

Query block: Write Percent Effect of COc1cc(CCC(=O)N2CCC(c3cc4nccnc4[nH]3)CC2)on1 ; system used: Mycobacterium tuberculosis
Result block: 16.88

Query block: Quote Mycobacterium tuberculosis Percent Effect for entry Cl.NC1CCc2nc(-c3cccnc3)nc(Nc3ccc(F)cc3)c2C1 (stereo unspecified) .
Result block: 98.04

Query block: Under Mycobacterium tuberculosis, report Percent Effect for CCCn1nnnc1COc1ccc(C(=O)OC)cc1
Result block: 2.105

Query block: Please look at CCOc1cccc2c1OCC(C(=O)NS(=O)(=O)c1ccc(Cl)s1)=C2 and tell me its recorded Percent Effect on Mycobacterium tuberculosis.
Result block: 9.699
